molecular target: UniProt P10635
Sequence (P10635 whole entry): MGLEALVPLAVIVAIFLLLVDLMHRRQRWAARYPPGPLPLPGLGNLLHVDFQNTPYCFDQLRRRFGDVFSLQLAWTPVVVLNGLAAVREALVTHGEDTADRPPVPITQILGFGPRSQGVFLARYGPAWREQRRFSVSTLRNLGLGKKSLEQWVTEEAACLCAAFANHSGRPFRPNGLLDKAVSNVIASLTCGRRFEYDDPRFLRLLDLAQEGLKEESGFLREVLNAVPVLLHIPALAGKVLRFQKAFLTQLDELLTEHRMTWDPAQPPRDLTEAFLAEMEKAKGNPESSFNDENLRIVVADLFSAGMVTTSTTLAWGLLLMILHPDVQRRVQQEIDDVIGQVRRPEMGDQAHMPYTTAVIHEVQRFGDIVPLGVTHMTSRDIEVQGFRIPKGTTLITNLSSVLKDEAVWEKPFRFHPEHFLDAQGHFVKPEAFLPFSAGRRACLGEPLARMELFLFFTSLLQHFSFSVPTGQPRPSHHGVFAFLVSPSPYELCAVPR
value_type: IC50 (µM)
State just the number; it will be interpreted in µM.

Can you look up IC50 on UniProt P10635 for Cc1cccc(-c2[nH]c(NCc3cccc(F)c3F)nc2-c2ccc3[nH]ncc3c2)n1 ? 6.9

###

experiment: Clearance in BALB/c mouse at 2 mg/kg, iv; format: ADME, organism-based; conditions: in vivo
value_type: clearance (mL/min/kg)

>  <smiles_code>
[2H]C([2H])([2H])n1ncc2cc(-c3nc(NCc4cccc(F)c4)[nH]c3-c3cccc(C)n3)ccc21

>  <value_unit>
mL/min/kg

>  <experimental_result>
29

$$$$
>  <smiles_code>
Cc1cccc(-c2[nH]c(NCc3cccc(F)c3)nc2-c2ccc3c(cnn3C)c2)n1

>  <value_unit>
mL/min/kg

>  <experimental_result>
38.4

$$$$

###

Biological target: TGF-beta receptor type-1 (Homo sapiens, UniProt P36897)
Sequence (P36897 whole entry): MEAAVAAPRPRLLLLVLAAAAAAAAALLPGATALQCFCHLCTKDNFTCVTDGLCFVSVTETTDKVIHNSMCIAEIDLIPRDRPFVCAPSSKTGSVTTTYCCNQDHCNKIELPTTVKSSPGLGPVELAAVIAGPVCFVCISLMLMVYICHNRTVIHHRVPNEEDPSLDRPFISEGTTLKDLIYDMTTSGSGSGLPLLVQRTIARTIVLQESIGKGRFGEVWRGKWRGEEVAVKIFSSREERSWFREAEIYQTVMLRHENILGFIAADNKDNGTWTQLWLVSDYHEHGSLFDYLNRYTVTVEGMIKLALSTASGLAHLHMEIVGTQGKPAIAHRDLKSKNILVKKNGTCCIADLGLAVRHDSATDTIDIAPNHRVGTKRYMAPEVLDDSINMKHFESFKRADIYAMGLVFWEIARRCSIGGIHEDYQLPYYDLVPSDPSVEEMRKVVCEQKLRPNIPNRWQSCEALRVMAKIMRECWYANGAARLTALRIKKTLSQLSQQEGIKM
Assay: Inhibition of ALK5 in human Hs-578T cells assessed as effect of TGF-beta-induced […] phosphorylation
Format: cell-based
value_type: IC50

>  <smiles_code>
Cc1cccc(-c2[nH]c(NCc3ccccc3F)nc2-c2ccc3[nH]ccc3c2)n1

>  <IC50>
> 300 nM

$$$$

Request the reported IC50 associated with Cc1cccc(-c2[nH]c(NCc3cccc(F)c3)nc2-c2ccc3c(cnn3S(C)(=O)=O)c2)n1 > 300 nM

###

A set of compounds tested on Cytochrome P450 2C19 (Homo sapiens, UniProt P33261), with measured pIC50:
pIC50: −log10 of the molar value.
value_type: pIC50

[I] Cc1cccc(-c2[nH]c(NCc3ccccc3F)nc2-c2ccc3[nH]ncc3c2)n1
[II] Cc1cccc(-c2[nH]c(NCc3ccc(F)c(F)c3)nc2-c2ccc3[nH]ncc3c2)n1
When their pIC50 values are compared, which is larger, I or II ? The response must carry the label of the picked entry. II

###

assay: Tmax in BALB/c mouse at 10 mg/kg, po; type: ADME, organism-based; conditions: in vivo
value_type: Tmax (min)

>  <smiles_code>
[2H]C([2H])([2H])n1ncc2cc(-c3nc(NCc4cccc(F)c4)[nH]c3-c3cccc(C)n3)ccc21

>  <experimental_result>
24

$$$$
>  <smiles_code>
Cc1cccc(-c2[nH]c(NCc3cccc(F)c3)nc2-c2ccc3c(cnn3C)c2)n1

>  <experimental_result>
24

$$$$
